Hey, just so you know, these numbers are from PubChem BioAssay (NCI).

Test system: HL-60(TB) leukemia
Assay: NCI tumour cell line growth inhibition, 48 h
Below, each entry is listed with its recorded TGI.
Reported metric: TGI

{"columns": ["Molecule", "Observed measurement"],
 "data": [
  ["Cc1cc(C)nc(NS(=O)(=O)c2ccc(Nc3c4ccc(Cl)cc4nc4c(C(=O)NCCN(C)C)cccc34)cc2)n1", "> 100 µM"],
  ["COC(=O)[C@H](Cc1ccc(OC(C)(C)C)cc1)N[C@H](C)C(=O)N[C@@H](Cc1ccccc1)C(=O)OCc1ccccc1", "> 100 µM"],
  ["c1ccc2c(c1)N=C(c1cccc3ccccc13)CC(c1ccc3c(c1)OCO3)S2 (centres undefined)", "> 100 µM"],
  ["NC12CCC(CC1=O)C2 (centres undefined)", "> 100 µM"]
]}

====

System: MDA-N
Assay: NCI tumour cell line growth inhibition, 48 h

{"columns": ["Compound", "Tested on", "TGI"],
 "data": [
  ["Cc1cc(C(C)(C)C)cc(CNC2CCCCC2)c1O", "MDA-N", "29.9 µM"],
  ["COC(=O)[C@H](Cc1ccc(OC(C)(C)C)cc1)N[C@H](C)C(=O)N[C@@H](Cc1ccccc1)C(=O)OCc1ccccc1", "MDA-N", "> 100 µM"],
  ["CCOC(=O)C(NC(=O)c1ccccc1)(Nc1ccc(Cl)cc1C(F)(F)F)C(F)(F)F (stereo not given)", "MDA-N", "3.69 µM"],
  ["O=C1CSC(c2c[nH]c3ccccc23)N1c1ccccc1[N+](=O)[O-] (stereo not given)", "MDA-N", "> 100 µM"],
  ["CCN(CC)CCNc1ccc2nnn3c4ccc(O)cc4c(=O)c1c23", "MDA-N", "17.5 µM"],
  ["COC(=O)CCC(C)C1CCC2C3C(C[C@H](OC(C)=O)[C@]12C)[C@@]1(C)CCC2(C[C@H]1C[C@H]3OC(C)=O)OOC1(CC[C@]3(C)C4C[C@H](OC(C)=O)[C@]5(C)C(C(C)CCC(=O)OC)CCC5C4[C@H](OC(C)=O)C[C@@H]3C1)OO2 (stereo not given in full)", "MDA-N", "> 100 µM"],
  ["COc1cc2c(cc1OCCCCOc1cc3c(cc1OC)C(=O)N1CCC[C@H]1C(=O)N3)N=C[C@@H]1CCCN1C2=O", "MDA-N", "19.6 µM"],
  ["CC(C)(C)CC(N)=O", "MDA-N", "> 100 µM"],
  ["O=C(CCCl)NNC1=NCCCN1", "MDA-N", "> 100 µM"],
  ["CC(C)(CCCCC(C)(C)[N+](C)(C)C)[N+](C)(C)C", "MDA-N", "> 100 µM"],
  ["CCOC(=O)c1c2c(c(O)c3ccccc3c(O)n(Cc3ccccc3)c1C)C(=O)C=CC2=O", "MDA-N", "> 100 µM"],
  ["O=C(O)CCCc1ccc2ccccc2c1", "MDA-N", "> 100 µM"],
  ["O=C(C/C(=N/O)c1cc(-c2ccccc2)no1)c1ccccc1", "MDA-N", "> 100 µM"],
  ["C=C(CN1CC2C[C@](C(=O)OC)(c3cc4ccccc4[nH]3)C1C(OC)C2OC)S(=O)(=O)c1ccccc1 (stereo not given in full)", "MDA-N", "8.94 µM"],
  ["Cc1ccc2c(c1)S(=O)(=O)c1ccc3ccccc3c1N2", "MDA-N", "> 100 µM"],
  ["CN(c1cn(C2CC[C@@H](CO)O2)c(=O)[nH]c1=O)C1CCCCC1 (stereo not given in full)", "MDA-N", "> 100 µM"],
  ["CS(=O)(=O)CC(=O)c1ccccc1", "MDA-N", "> 100 µM"],
  ["Cc1ccc2nc(C=Nc3ccc(Cl)cc3)cc(C)c2c1", "MDA-N", "25.2 µM"],
  ["COC(=O)C1=C(C)C=C(N2CCOCC2)C(C(=O)OC)C1c1ccccc1 (stereo not given)", "MDA-N", "> 10 µM"],
  ["CC1=CC(=O)CC(C)(C)C1/C=C/C(C)=C/C=C/C(C)=C/C=C/C=C(C)/C=C/C=C(C)/C=C/C1=C(C)CC(O)CC1(C)C (stereo not given)", "MDA-N", "> 100 µM"],
  ["OCCOc1ccccc2cccc1-2", "MDA-N", "> 100 µM"],
  ["COc1ccc2nc3ccc(OC)cc3c(SCc3ccccc3)c2c1", "MDA-N", "> 26.3 µM"],
  ["Brc1ccc2c(c1)-c1nc3nc4c(cc3cc1CC2)CCc1ccc(Br)cc1-4", "MDA-N", "> 100 µM"],
  ["CN1CN(c2ccccc2)C2(CCN(CCC3COc4ccccc4O3)CC2)C1=O (stereo not given)", "MDA-N", "53.1 µM"],
  ["CCN(CC)Cc1c(/C=C\\c2cc(OC)c(OC)c(OC)c2)ccc(OC)c1O", "MDA-N", "1.59 µM"]
]}

====

Tested on: PC-3 prostate
Experiment: NCI tumour cell line growth inhibition, 48 h; in the data active = GI50 below about 0.43 µM; inactive = the rest
Classes used: yes (1) (active), no (0) (inactive)

{"columns": ["Compound", "Group label"],
 "data": [
  ["N#C[Se]CCCNS(=O)(=O)C1CC2C=CC1C2 (centres undefined)", "no (0)"],
  ["COc1cc(/C=C/C(=O)N2CCN(C(=O)c3cc(OC)c(OC)c(OC)c3)CC2)ccc1OCCCOc1cc2c(cc1OC)C(=O)N1CCC[C@H]1C=N2", "no (0)"],
  ["CCOc1cccc(-c2nc(N)nc(Nc3ccccc3SSc3ccccc3Nc3nc(N)nc(-c4cccc(OCC)c4)n3)n2)c1", "no (0)"],
  ["Oc1cc2ccccc2c(-c2c(O)c(O)cc3ccccc23)c1O", "no (0)"],
  ["COc1cc(C(=O)N/N=C/c2ccc(N(C)C)cc2)cc(OC)c1OC", "yes (1)"],
  ["CCCCCCCCn1ccc2cc(NC(=O)Cn3cc(CN4CCCCC4)nn3)ccc21", "no (0)"],
  ["CN(C)c1ccc(/C=C/C2=[N+](C)c3ccccc3C2(C)C)cc1", "yes (1)"],
  ["O=C1OCC2=C1C(c1ccc(Cl)c(Cl)c1)c1cc3c(cc1N2CCO)CCC3 (centres undefined)", "yes (1)"],
  ["CC1(C)[C@@H](OC(=O)CCC(=O)O)CC[C@]2(C)[C@H]3C(=O)C=C4[C@@H]5C[C@@](C)(C(=O)O)CC[C@]5(C)CC[C@@]4(C)[C@]3(C)CC[C@@H]12", "no (0)"]
]}

====

Test system: COLO 205 colon
Assay: NCI tumour cell line growth inhibition, 48 h

{"columns": ["Molecule", "Bound sign", "TGI, µM"],
 "data": [
  ["Oc1cc2ccccc2c(-c2c(O)c(O)cc3ccccc23)c1O", "=", 8.95],
  ["COc1ccc2cc(-c3nc(N)nc(N4N=C(C)CC4(C)C)n3)c(=N)oc2c1", "=", 30.8],
  ["CN(c1cn(C2CC[C@@H](CO)O2)c(=O)[nH]c1=O)C1CCCCC1 (stereo not given in full)", ">", 100],
  ["O=C1C(Cl)N(c2cccc([N+](=O)[O-])c2)C1c1c[nH]c2ccccc12 (stereo not given)", "=", 41.8],
  ["Cn1c(/C=C/[N+](=O)[O-])cc2ccccc21", "=", 3.69],
  ["CCCCCCCCn1ccc2cc(NC(=O)Cn3cc(CN4CCCCC4)nn3)ccc21", "=", 3.68],
  ["CC(=O)OC12c3ccccc3-c3ccccc3C1C1C(=O)OC(=O)C12 (stereo not given)", ">", 10],
  ["CC(=O)c1cc(C(=O)c2ccc3c(c2)Sc2ccccc2N3)c2cc(C)ccn12", "=", 0.346],
  ["COc1cc(C(=O)N/N=C/c2ccc(N(C)C)cc2)cc(OC)c1OC", "=", 1.64],
  ["COc1ccc2[nH]c3c(C)c4ccnc(NCCCN(C)CCCNc5ccc6ncn7c8ccccc8c(=O)c5c67)c4c(C)c3c2c1", "=", 4.36]
]}

====

Tested on: SNB-75 CNS
Assay: NCI tumour cell line growth inhibition, 48 h

{"columns": ["Compound", "TGI"],
 "data": [
  ["Cc1cc(C)nc(NS(=O)(=O)c2ccc(Nc3c4ccc(Cl)cc4nc4c(C(=O)NCCN(C)C)cccc34)cc2)n1", "> 100 µM"],
  ["O=C(NCCNCCCNC(=O)c1cc(-c2ccccc2)nc2ccccc12)c1cccc(OCc2ccccc2)c1OCc1ccccc1", "3.39 µM"],
  ["COP(=O)(OC)C(O)CC(C)C (stereo not given)", "> 100 µM"],
  ["Clc1ccc(-c2cc(-c3ccccc3)nc(NCCNc3ccnc4cc(Cl)ccc34)n2)cc1", "3.08 µM"],
  ["O=C(O)c1ccc(C2SCc3nc4ccccc4n32)cc1 (stereo not given)", "> 100 µM"],
  ["C=CCOC(=O)C1=C(CCC[C@@H](C)O[Si](C)(C)C(C)(C)C)N=C(N)N2[C@H](CCO)CC[C@@H]12", "32.5 µM"],
  ["COc1ccc(Nc2cc(C)nc(NCCCNc3ccnc4cc(Cl)ccc34)n2)cc1", "2.54 µM"],
  ["COc1cc([C@@H]2C[C@H]2c2cc(SC)n[nH]2)cc(OC)c1OC", "> 100 µM"],
  ["CN1CCN(Cc2ccc(NC(=O)c3cccc(C#Cc4cnc(N)c5ncccc45)c3F)cc2C(F)(F)F)CC1", "7.48 µM"],
  ["Cn1cc(C2=C(c3cn(C)c4ccccc34)C(=O)NC2=O)c2ccccc21", "1.64 µM"],
  ["Nc1nc2c(ncn2Cc2ccccc2CO)c(=O)[nH]1", "> 100 µM"],
  ["Oc1cc2ccccc2c(-c2c(O)c(O)cc3ccccc23)c1O", "28.1 µM"],
  ["Cc1cccc(-c2cc(=O)c3c(C)cc(C)nc3[nH]2)c1", "7.36 µM"],
  ["COc1ccc(C(=O)C(c2ccc(OCc3ccccc3)cc2)c2ccc(OCc3ccccc3)cc2)cc1", "> 100 µM"],
  ["CC(=O)NC(Cc1ccsc1)C(=O)O (stereo not given)", "> 100 µM"],
  ["CC(=O)OC1CC2C3CCC4C[C@@H](NC(=O)C=C(C)C)CC[C@]4(C)C3CC[C@]2(C)[C@H]1C(C)N(C)C (stereo not given in full)", "6.51 µM"],
  ["COC(=O)C(Cc1nc2ccccc2nc1C)/C(=N\\NC(N)=O)C(=O)Nc1cccc([N+](=O)[O-])c1 (stereo not given)", "> 100 µM"],
  ["O=c1ssc(Cl)c1Cl", "> 10 µM"],
  ["N/N=c1\\c2ccccc2c2cc3c(cc12)/c(=N/N)c1ccccc13", "> 100 µM"],
  ["CC(=O)Nc1ccc(COC(O)CN2CCCCC2)cc1[N+](=O)[O-] (stereo not given)", "> 100 µM"],
  ["C[C@@H](NC(=O)c1ccc(CNC(=O)/C=C/c2cccc(Oc3ccccc3)c2)cc1)c1ccccc1", "20.1 µM"],
  ["CCOC(=O)c1c2c(c(O)c3ccccc3c(O)n(Cc3ccccc3)c1C)C(=O)C=CC2=O", "> 100 µM"],
  ["Nc1cc(=O)n(-c2ccccc2)c(=S)n1-c1ccccc1", "> 100 µM"],
  ["O=c1[nH]c(=O)n(C2OC(CO)C(O)C2O)cc1Oc1ccccc1 (stereo not given)", "> 100 µM"],
  ["CSC12c3cc(C)n(-c4ccccc4)c3CC(C)(C)CN1C(=O)C2Oc1ccccc1 (stereo not given)", "> 100 µM"],
  ["O=C1C=CC(=O)c2c1ccc1c3ccccc3n(-c3ccccc3[N+](=O)[O-])c21", "35.7 µM"],
  ["CC(C)(C)CC(N)=O", "> 100 µM"],
  ["COc1ccc2[nH]c3c(C)c4ccnc(NCCCN(C)CCCNc5ccc6ncn7c8ccccc8c(=O)c5c67)c4c(C)c3c2c1", "7.38 µM"],
  ["COC1(O)c2cccc(Cl)c2C(=O)N1C1(C(N)=O)CCCCC1 (stereo not given)", "> 100 µM"],
  ["CC(C)(C)C1=CC(=C2C(=O)C(=O)c3ccccc3C2=O)C=C(C(C)(C)C)C1=O", "> 100 µM"],
  ["COC1=CC(c2ccc[nH]2)=N/C1=C\\c1[nH]c(C)c(C(=O)CCCCC(=O)Oc2ccc3c(c2)CCC2C3CC[C@]3(C)[C@@H](O)CC[C@@H]23)c1C (stereo not given in full)", "> 100 µM"],
  ["CC1CCC2(CC1)NC1=C(CC(C)CC1)C1=C2CC(C)CC1 (stereo not given)", "59.7 µM"],
  ["Ic1cc2c(cc1C1SCCCS1)OCO2", "> 100 µM"],
  ["Fc1ccc(-c2sc(-c3cccs3)cc2Cc2cccs2)cc1", "> 100 µM"],
  ["CC(=O)OC12c3ccccc3-c3ccccc3C1C1C(=O)OC(=O)C12 (stereo not given)", "> 10 µM"],
  ["CC1C(OC2O[C@@H]3O[C@@]4(C)CC[C@H]5[C@H](C)CC[C@@H](C2C)[C@@]35O4)O[C@@H]2O[C@@]3(C)CC[C@H]4[C@H](C)CC[C@@H]1[C@@]24O3 (stereo not given in full)", "> 50 µM"],
  ["COc1ccc(C(=O)/C=C/c2ccc(OCCSCCCCCCCCCCSCCOc3ccc(/C=C/C(=O)c4ccc(OC)c(OC)c4)cc3)cc2)cc1OC", "> 100 µM"],
  ["CSc1ncc2c(n1)sc1c(=O)n(-c3ccccc3)cnc12", "> 100 µM"],
  ["c1ccc2c(c1)NC1(N3CCCCC3)CCCCC21 (stereo not given)", "> 100 µM"],
  ["COc1ccc2nc3ccc(OC)cc3c(SCc3ccccc3)c2c1", "> 100 µM"]
]}
